Tested on: K562;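 further: after 48 h exposure read by CellTiter-Glo luminescence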
Assay: cell viability relative to vehicle control; higher = less cytotoxic
Details: 10 µM; SRSF2 genotype: SRSF2 wt/wt

>  <compound>
COc1ccc(-c2cc(=O)c3c(O)c(OC)c(O)cc3o2)cc1OC

>  <test_system>
K562;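 further: after 48 h exposure read by CellTiter-Glo luminescence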

>  <cell viability (%)>
97

$$$$
>  <compound>
COc1cc2c(c(OC)c1OC)-c1c(cc3c(c1OC)OCO3)C[C@H](C)[C@](C)(O)[C@H]2OC(=O)c1ccccc1

>  <test_system>
K562;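 further: after 48 h exposure read by CellTiter-Glo luminescence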

>  <cell viability (%)>
97.5

$$$$
>  <compound>
Nc1ncnc2c1ncn2[C@@H]1O[C@H](CO)[C@@H](O)[C@@H]1O [Vidarabine monohydrate]

>  <test_system>
K562;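 further: after 48 h exposure read by CellTiter-Glo luminescence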

>  <cell viability (%)>
110

$$$$
>  <compound>
CC(C)S(=O)(=O)c1ccc2nccc(Nc3ccc4scnc4c3)c2c1

>  <test_system>
K562;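 further: after 48 h exposure read by CellTiter-Glo luminescence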

>  <cell viability (%)>
63.7

$$$$
>  <compound>
COCCOC(=O)C1=C(C)NC(C)=C(C(=O)OC(C)C)C1c1cccc([N+](=O)[O-])c1 (configuration not stated)

>  <test_system>
K562;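 further: after 48 h exposure read by CellTiter-Glo luminescence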

>  <cell viability (%)>
99.3

$$$$
>  <compound>
CC1(C)S[C@@H]2[C@H](NC(=O)[C@H](N)c3ccccc3)C(=O)N2[C@H]1C(=O)OCOC(=O)[C@@H]1N2C(=O)C[C@H]2S(=O)(=O)C1(C)C

>  <test_system>
K562;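 further: after 48 h exposure read by CellTiter-Glo luminescence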

>  <cell viability (%)>
106

$$$$
>  <compound>
COC(=O)C1=CO[C@@H](O[C@@H]2O[C@H](CO)[C@@H](O)[C@H](O)[C@H]2O)[C@@H]2C(CO)=CC[C@H]12 [Geniposide]

>  <test_system>
K562;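 further: after 48 h exposure read by CellTiter-Glo luminescence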

>  <cell viability (%)>
87.9

$$$$
